B1: TPR t1 (parent)
chain: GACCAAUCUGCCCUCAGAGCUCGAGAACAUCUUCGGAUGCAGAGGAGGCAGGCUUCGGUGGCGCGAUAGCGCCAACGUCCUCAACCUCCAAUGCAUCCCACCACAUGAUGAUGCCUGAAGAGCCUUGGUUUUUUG

Variants of: B1
Experiment: polymerase ribozyme fitness, log enrichment relative to wild type (log ratio); higher = more active; in vitro selection for triplet polymerase activity
Can you tell me polymerase ribozyme fitness (log ratio) for the items I'm about to list?
Lab note: write the figure by itself, no unit.

Recorded result, A75G U116A G117U C123U , polymerase ribozyme fitness (log ratio): -2.78

Recorded result, C53U C70A A84C A100U , polymerase ribozyme fitness (log ratio): -3.17

Recorded result, A2C G63U U129A , polymerase ribozyme fitness (log ratio): -2.77

Recorded result, A26U U54G U78C C89U , polymerase ribozyme fitness (log ratio): -5.2

Recorded result, A26G G45A G120C , polymerase ribozyme fitness (log ratio): -1.66

Recorded result, C12A G128U , polymerase ribozyme fitness (log ratio): -2.12

Recorded result, A6U G36A , polymerase ribozyme fitness (log ratio): -0.596

Recorded result, C34A A46U A75G C102U A111G , polymerase ribozyme fitness (log ratio): -3.22

Recorded result, C56G U109C , polymerase ribozyme fitness (log ratio): -3.23

Recorded result, U7A U81G G122A , polymerase ribozyme fitness (log ratio): -5.92

Recorded result, G44A G45U G77A U129C , polymerase ribozyme fitness (log ratio): -3.02

Recorded result, U67G C82A , polymerase ribozyme fitness (log ratio): -6.14

Recorded result, U14C U116G G120A U129A , polymerase ribozyme fitness (log ratio): -2.37

Recorded result, G58C U112C C114U , polymerase ribozyme fitness (log ratio): -1.68

Recorded result, C8A A16C C40U C72A U92G C123U U130A , polymerase ribozyme fitness (log ratio): -3.93

Recorded result, C70G U78A C86A , polymerase ribozyme fitness (log ratio): -3.32

Recorded result, C4A U21G G44U C82A C124G , polymerase ribozyme fitness (log ratio): -3.89

Recorded result, C11U C56A U116C , polymerase ribozyme fitness (log ratio): -2.85

Recorded result, G69U C102A , polymerase ribozyme fitness (log ratio): -1.4

Recorded result, G44U C80U , polymerase ribozyme fitness (log ratio): -1.59

These entries and their values trace back to the RNAGym collection of RNA variant scans (doi:10.1073/pnas.2313332121).
